These measurements were taken from ChEMBL document CHEMBL4130609.

# Test system: 786-0
# assay info: Cytotoxicity against human 786-O cells after 72 hrs by CCK8 assay
# Assay type: functional, cell-based
# run conditions: 786-0, 72 h
pIC50: −log10 of the molar value.
Label Criterion met when pIC50 >= 5; otherwise Criterion not met.

Answered cases to consult:
>  <molecule>
C[C@]1(CO)CCC[C@]2(C)[C@H]3COC(=O)C3=C[C@@H](OC(=O)c3ccc([N+](=O)[O-])cc3)[C@@H]12

>  <target or system>
786-0

>  <class>
Criterion not met

$$$$
>  <molecule>
CC(=O)OC[C@@]1(C)CCC[C@]2(C)[C@H]3COC(=O)C3=C[C@@H](OC(=O)c3ccc([N+](=O)[O-])cc3)[C@@H]12

>  <target or system>
786-0

>  <class>
Criterion not met

$$$$
>  <molecule>
C[C@]1(COC(=O)c2ccc([N+](=O)[O-])cc2)CCC[C@@]2(C)[C@H]1[C@H](O)C=C1C(=O)OC[C@@]12O

>  <target or system>
786-0

>  <class>
Criterion met

$$$$
>  <molecule>
CNC(=O)c1cc(Oc2ccc(NC(=O)Nc3ccc(Cl)c(C(F)(F)F)c3)cc2)ccn1 [SORAFENIB]

>  <target or system>
786-0

>  <class>
Criterion met

$$$$
>  <molecule>
CC(=O)OC[C@@]1(C)CCC[C@@]2(C)[C@H]1[C@H](OC(=O)c1ccc([N+](=O)[O-])cc1)C=C1C(=O)OC[C@@]12O

>  <target or system>
786-0

>  <class>
Criterion met

$$$$
>  <molecule>
C[C@]1(CO)CCC[C@@]2(C)[C@H]1[C@H](OC(=O)c1ccc([N+](=O)[O-])cc1)C=C1C(=O)OC[C@@]12O

>  <target or system>
786-0

>  <class>
Criterion met

$$$$

Hello, I need to know if C[C@]1(COC(=O)c2ccc([N+](=O)[O-])cc2)CCC[C@]2(C)[C@H]3COC(=O)C3=C[C@@H](O)[C@@H]12 has measured pIC50 not below 5. Thanks!
Criterion not met
